Biological target: T1, CD123 (Homo sapiens (Human), UniProt P26951 19-305, limits assumed)
T1 construct: The CD123 construct used in the ELISA is not described; also called CD123-Signal
T1 sequence: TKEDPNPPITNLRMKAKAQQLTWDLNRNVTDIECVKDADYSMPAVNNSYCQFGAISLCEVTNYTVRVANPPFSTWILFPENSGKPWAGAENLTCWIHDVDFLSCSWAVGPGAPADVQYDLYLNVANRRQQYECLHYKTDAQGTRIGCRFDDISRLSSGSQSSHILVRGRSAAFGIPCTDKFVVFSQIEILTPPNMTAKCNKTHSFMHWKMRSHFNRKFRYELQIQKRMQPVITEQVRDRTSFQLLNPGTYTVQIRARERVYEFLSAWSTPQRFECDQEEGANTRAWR
Experiment: ELISA
Parameters: unit not given here
assay readout: ELISA_avg
Write the value as a bare number.

Please review the entries below; each comes with its answer.
| binder | numeric result |
| --- | --- |
| D domain of SEQ ID NO: 601 (designed binder) MGSWYEFDDRLWAIFDRLFALGGSEAELAFFEDSIAEFEEELQHYKGKGNPEVEALYLEAWAIENELGAYRHN | 4.7 |
| D domain of SEQ ID NO: 579 (designed binder) MGSWNEFDDRLLAIWGRLDALGGSEAELAFFEEQIAGFEDELQWYKGKGNPEVEALDQEAEAIEKELWAYRHN | 4.1 |
| D domain of SEQ ID NO: 458 (designed binder) MGSWYEFSMRLDAIYDRLMALGGSEAELAAFEKEIAAFESELQAYKGKGNPEVEQLRGYAANIRNELQAYRHN | 13 |
| D domain of SEQ ID NO: 441 (designed binder) MGSWVEFYTRLDAIYGRLDALGGSEAELAAFEKEIAAFESELQAYKGKGNPEVEWLRQVAANIRMELQAYRHN | 14.4 |
| D domain of SEQ ID NO: 357 (designed binder) MGSWYEFVIRLEAIEDRLWALGGSEAELAAFEKEIAAFESELQAYKGKGNPEVEVLRWYAADIRHELQAYRHN | 6.4 |
| D domain of SEQ ID NO: 503 (designed binder) MGSWHWFKEDLANIKDWLEALGGSEAELAWFEDNIADFEGDLQVYKGKGNPEVEALRKEAAAIRDELQAYRHN | 3.3 |

Query string: Fill blank: measured ELISA_avg of the binder D domain of SEQ ID NO: 563 (designed binder) MGSWSWFQWDLAGIKDHLEALGGSEAELAEFESEIAYFEDELQWYKGKGNPEVEALRKEAAAIRDELQAYRHN is ____.
Result string: 12.9

Query string: Field request: ELISA_avg | item: D domain of SEQ ID NO: 623 (designed binder) MGSWEEFLFRLEAIQDRLWALGGSEAELAWFEYEIASFEDVLQSYKGKGNPEVEALSTEAKAIDYELFAYRHN
Result string: 8.2

Query string: What value of measured ELISA_avg is listed for D domain of SEQ ID NO: 427 (designed binder) MGSWWEFENRLWAIEERLEALGGSEAELAAFEKEIAAFESELQAYKGKGNPEVEMLRNYAAEIRWELQAYRHN ?
Result string: 5.6

Query string: // returns reported ELISA_avg for input D domain of SEQ ID NO: 567 (designed binder) MGSWAEFKQRLAAIKTRLEALGGSEAELAAFEWEIVAFFSELFAYKGKGNPEVEALRDEAIAIETELVAYRHN
Result string: 3.6
